Reported activity change, negative = inhibition by item:
- SUBJECT OF TEST: Polyunsaturated fatty acid lipoxygenase ALOX12 (Homo sapiens)
- ASSAY SUMMARY: Confirmation qHTS Assay for Inhibitors of 12-hLO (12-human lipoxygenase)
- RECORDED CONDITIONS: purified 12-hLO, xylenol orange absorbance; active compounds read low
- Description: Assay Provider: Holman, T.R., University of California, Santa Cruz Screening Center PI: Austin, Christopher P. Screening Center: NIH Chemical Genomics Center Human lipoxygenase 12hLO is a member of the closely related lipoxygenase family of enzymes which catalyze the site-specific oxidation of arachidonic acid to various hormone precursor molecules and as such is a candidate for drug development in a variety of disease areas, such as cancer and inflammation. […]
Inconclusive results are not listed. Calls of active or inactive are those of the source. The call rests on the fitted dose curve; in most records, active means well fitted inhibition curve with a large enough effect; inconclusive means small, poorly fitted or top-dose-only effect; inactive means flat fitted curve, though single readings scatter.

Examples with their reported activity change, negative = inhibition follow.
INSERT INTO results (record_smiles, test_value) VALUES
  ('Cc1noc(C)c1-c1nc(N(C)Cc2ccco2)c2ccccc2n1', '-12.2% (inactive)'),
  ('O=C(Nc1nnc(-c2ccco2)s1)C1CCCCC1', '-5.47% (inactive)');

With those in mind, consider the next compound.
Entry O=C(OCC#CCSc1nnc(-c2cccc3ccccc23)o1)c1ccc(Br)cc1 , tested on Polyunsaturated fatty acid lipoxygenase ALOX12 (Homo sapiens), has a reported activity change, negative = inhibition of -6.83% (inactive)

* * *

# reported activity change, negative = inhibition; entries follow
- SUBJECT OF TEST: Polyunsaturated fatty acid lipoxygenase ALOX12 (Homo sapiens)
- ASSAY SUMMARY: Confirmation qHTS Assay for Inhibitors of 12-hLO (12-human lipoxygenase)
- RECORDED CONDITIONS: purified 12-hLO, xylenol orange absorbance; active compounds read low
Records with an inconclusive call do not appear.
Please respond with the number in % and leave the unit unwritten.

Example results:
INSERT INTO measurements (record_smiles, test_value) VALUES
  ('CCC(=O)N(Cc1cc(=O)[nH]c2ccccc12)C1CCCCC1', 3.25),
  ('O=C(OCC#CCSc1nnc(-c2cccc3ccccc23)o1)c1ccc(Cl)cc1', -7.17);

# activity change, negative = inhibition of O=C(OCC#CCSc1nnc(-c2cccc3ccccc23)s1)c1cccs1 = -23.7

Data provenance is PubChem BioAssay AID2162.
